# target: human CA-IX (Homo sapiens)
# Construct: purchased Acro CA9-H82E3
# assay.summary: Surface Plasmon Resonance (SPR) binding kinetics to recombinant human CA-IX (Biacore 8K, single-cycle kinetics, 1:1 binding model)
# measurement.setup: Chelated Metal: Lu-175; SPR, 25° C., pH 7.4; read-out: CAIX KD
pKd: −log10 of the molar value.
experimental.readout: pKd

Value of pKd reported for the compound NS(=O)(=O)c1nnc(NC(=O)C23CC(c4cn(CCNC(=O)[C@@H]5CN(C(=O)CN6CCN(CC(=O)O)CCN(CC(=O)O)CCN(CC(=O)O)CC6)CCN5C(=O)C[C@H](NC(=O)C[C@H](NC(=O)CC5CC6(CCC6)C5)C(=O)O)C(=O)O)nn4)(C2)C3)s1.[Lu+3] is > 9.00

Value of pKd reported for the compound CC(CCCC(=O)N1CCC(C(N)=O)(C(=O)NCC(=O)N2CCN(C(=O)CN3CCN(CC(=O)O)CCN(CC(=O)O)CCN(CC(=O)O)CC3)C[C@H]2C(=O)NCCn2cc(COc3ccc4nc(S(N)(=O)=O)sc4c3)nn2)CC1)(c1ccc(O)cc1)c1ccc(O)cc1.[Lu+3] is > 9.00

Value of pKd reported for the compound CC(CCC(=O)N1CCN(C(=O)CN2CCN(CC(=O)O)CCN(CC(=O)O)CCN(CC(=O)O)CC2)C[C@H]1C(=O)N[C@@H](CC(=O)N1CCOC[C@@H]1Cn1cc(C23CC(C(=O)Nc4nnc(S(N)(=O)=O)s4)(C2)C3)nn1)C(=O)O)(c1ccc(O)cc1)c1ccc(O)cc1.[Lu+3] is 8.60 to 9.00

Value of pKd reported for the compound CC(CCC(=O)N[C@@H](CC(=O)N[C@@H](CC(=O)N1CCN(C(=O)CN2CCN(CC(=O)O)CCN(CC(=O)O)CCN(CC(=O)O)CC2)C[C@H]1C(=O)NCCn1cc(-c2ccc(-c3cn4nc(S(N)(=O)=O)sc4n3)cc2)nn1)C(=O)O)C(=O)O)(c1ccc(O)cc1)c1ccc(O)cc1.[Lu+3] is > 9.00
